Data credit: the supplement of paper PMC10065799

phosphorylation enrichment reference
Test system: c-Abl (mouse)
EXPERIMENT_NOTES: phosphorylation enrichment, bacterial display (enrichment ratio); higher = better substrate or ligand; peptides without Tyr show the background;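 also: 11-residue human phosphosite peptides and single-mutation variants displayed on the E. coli surface, counted by deep sequencing, each peptide's frequency after selection divided by its frequency in the unselected input library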;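 also: frequency after pTyr selection over input frequency; kinase dosed for 20-30% of maximal phosphorylation in three min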
Give a plain numeric answer without units written out.

[[record]]
sequence_entry = "PEFINYHQHNS [BTK_Y361_L358F]"
measurement_type = "phosphorylation enrichment"
measured_result = 0.491


Challenge: Look at this sequence and give its reported phosphorylation enrichment. SKNSKCNAEST [PSEN1_Y315_Y315C]
Response given: 0.566

Challenge: And the next one, SGDINYGQFAQ [PLCG1_Y210_T209N] ?
Response given: 0.874

Challenge: And the next one, KRIETYFSKNY [PLP1_Y50_L46R] ?
Response given: 0.532

Challenge: And the next one, GLDGSYLLRFS [SH2D1A_Y29_D33Y_YF] ?
Response given: 0.644

Challenge: And the next one, RCKSHYAAFSV [C1QTNF1_Y145] ?
Response given: 4.74

Challenge: And the next one, ISKKRYAGLLF [POLD1_Y809] ?
Response given: 0.52

Challenge: And the next one, KMKGEYFRFLA [YWHAG_Y130_D129E_YF] ?
Response given: 1.4

----------
Tested on: c-Src
EXPERIMENT_NOTES: phosphorylation enrichment, bacterial display (enrichment ratio); higher = better substrate or ligand; peptides without Tyr show the background
phosphorylation enrichment below 0.5 gives false; phosphorylation enrichment at or above it gives true.

These recorded examples may help you get a feel for the data.
[[record]]
sequence_entry = "FSEVRYVKEPF [HIPK4_Y170_YF]"
answer_label = "false"

[[record]]
sequence_entry = "WFPANYVKLLN [ITSN1_Y1132_S1137N]"
answer_label = "true"

[[record]]
sequence_entry = "GLVFLYVEKNQ [PRELP_Y156_M157V]"
answer_label = "false"

[[record]]
sequence_entry = "GHEYIYVDPMQ [PDGFRA_Y574]"
answer_label = "true"


Challenge: Does GAVDTYCRHNY [HLA-DRB1_Y107_A102G] have a reported phosphorylation enrichment of at least 0.5?
Response given: true

Challenge: And the next one, RLLRGYDQLAY [HLA-C_Y137_S140L] ?
Response given: false

Challenge: And the next one, VTRKEYFIFLE [CAMKV_Y95] ?
Response given: true

Challenge: And the next one, KSSDVYVSYDY [SORL1_Y136] ?
Response given: true

Challenge: And the next one, KMKGDYFCFLA [YWHAG_Y130_R132C_YF] ?
Response given: true

Challenge: And the next one, TNDMRYPMKSE [TGDS_Y302] ?
Response given: false

----------
TARGET_OR_SYSTEM: MERTK (UniProt Q12866)
Sequence (Q12866 whole entry, looked up): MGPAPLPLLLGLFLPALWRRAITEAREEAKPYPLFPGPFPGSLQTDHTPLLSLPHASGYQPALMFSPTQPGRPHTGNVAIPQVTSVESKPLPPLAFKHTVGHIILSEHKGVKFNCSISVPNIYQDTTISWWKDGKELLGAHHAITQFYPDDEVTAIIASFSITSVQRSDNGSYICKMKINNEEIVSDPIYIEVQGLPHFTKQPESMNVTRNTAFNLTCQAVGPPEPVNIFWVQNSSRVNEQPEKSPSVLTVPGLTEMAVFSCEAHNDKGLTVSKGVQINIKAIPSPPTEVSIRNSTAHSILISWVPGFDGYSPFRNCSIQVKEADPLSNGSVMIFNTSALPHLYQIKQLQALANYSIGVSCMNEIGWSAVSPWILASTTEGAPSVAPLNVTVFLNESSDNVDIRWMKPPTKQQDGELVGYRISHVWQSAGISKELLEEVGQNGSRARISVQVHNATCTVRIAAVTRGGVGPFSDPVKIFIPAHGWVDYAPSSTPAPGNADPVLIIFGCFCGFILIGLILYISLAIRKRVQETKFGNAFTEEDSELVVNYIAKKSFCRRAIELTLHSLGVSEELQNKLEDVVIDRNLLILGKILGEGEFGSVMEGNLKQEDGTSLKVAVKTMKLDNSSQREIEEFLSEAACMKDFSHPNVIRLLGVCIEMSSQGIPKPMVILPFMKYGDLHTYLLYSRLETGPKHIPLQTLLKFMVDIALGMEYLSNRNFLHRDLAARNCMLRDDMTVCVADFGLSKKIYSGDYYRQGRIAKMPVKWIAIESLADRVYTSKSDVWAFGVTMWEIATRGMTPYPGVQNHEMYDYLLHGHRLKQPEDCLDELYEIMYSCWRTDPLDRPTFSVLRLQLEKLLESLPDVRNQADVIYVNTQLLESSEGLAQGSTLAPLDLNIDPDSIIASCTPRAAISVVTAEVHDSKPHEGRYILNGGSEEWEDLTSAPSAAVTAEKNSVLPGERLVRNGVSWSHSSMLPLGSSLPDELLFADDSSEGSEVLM
EXPERIMENT_NOTES: phosphorylation enrichment, bacterial display (enrichment ratio); higher = better substrate or ligand; peptides without Tyr show the background
MEASUREMENT_TYPE: phosphorylation enrichment
Give a plain numeric answer without units written out.

Below are worked cases with known answers.
[[record]]
sequence_entry = "KIPGRYYETGS [PAX2_Y72_L69P]"
measurement_type = "phosphorylation enrichment"
measured_result = 0.573

[[record]]
sequence_entry = "IPGGIYNADLN [CST4_Y35_D36N]"
measurement_type = "phosphorylation enrichment"
measured_result = 0.443

[[record]]
sequence_entry = "PATFTYDEFKK [COL8A2_Y648_YF]"
measurement_type = "phosphorylation enrichment"
measured_result = 0.677

[[record]]
sequence_entry = "GRVFVYHLSEQ [ITGAE_Y551_R552H_YF]"
measurement_type = "phosphorylation enrichment"
measured_result = 0.44

[[record]]
sequence_entry = "PVPKTYDMLNA [PKP2_Y108_K112N]"
measurement_type = "phosphorylation enrichment"
measured_result = 1.14

[[record]]
sequence_entry = "ADRARYSAFGG [RBM4_Y361]"
measurement_type = "phosphorylation enrichment"
measured_result = 0.4

[[record]]
sequence_entry = "SSSGAYGGGYG [KRT19_Y61]"
measurement_type = "phosphorylation enrichment"
measured_result = 0.34


Okay, next one:
Challenge: Query the reported phosphorylation enrichment for MERTK (UniProt Q12866); item: QCTSAYLLQPE [NANS_Y188_P189L]
Response given: 0.785

----------
TARGET_OR_SYSTEM: Fyn (UniProt P06241)
Sequence (P06241 whole entry, looked up): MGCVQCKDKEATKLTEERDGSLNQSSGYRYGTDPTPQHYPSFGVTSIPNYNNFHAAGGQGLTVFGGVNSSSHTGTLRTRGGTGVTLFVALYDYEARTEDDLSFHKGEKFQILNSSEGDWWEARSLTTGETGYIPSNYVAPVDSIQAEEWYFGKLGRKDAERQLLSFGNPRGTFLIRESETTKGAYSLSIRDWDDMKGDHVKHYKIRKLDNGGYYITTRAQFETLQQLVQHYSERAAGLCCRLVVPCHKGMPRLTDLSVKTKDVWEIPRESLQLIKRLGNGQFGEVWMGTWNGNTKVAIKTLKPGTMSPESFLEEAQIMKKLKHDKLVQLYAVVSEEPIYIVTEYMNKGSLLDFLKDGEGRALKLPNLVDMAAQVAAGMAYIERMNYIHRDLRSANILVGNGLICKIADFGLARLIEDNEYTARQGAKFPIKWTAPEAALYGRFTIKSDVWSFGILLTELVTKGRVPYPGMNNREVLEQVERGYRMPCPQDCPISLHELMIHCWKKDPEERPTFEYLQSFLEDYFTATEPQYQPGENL
EXPERIMENT_NOTES: phosphorylation enrichment, bacterial display (enrichment ratio); higher = better substrate or ligand; peptides without Tyr show the background
phosphorylation enrichment below 0.6 gives NO; phosphorylation enrichment at or above it gives YES.

These recorded examples may help you get a feel for the data.
[[record]]
sequence_entry = "SSVKPYRVYCD [FGB_Y266]"
answer_label = "NO"

[[record]]
sequence_entry = "TLQRMYGCDVG [HLA-B_Y123_S121R]"
answer_label = "NO"

[[record]]
sequence_entry = "LTTPTYGDLNH [TUBB_Y222]"
answer_label = "YES"

[[record]]
sequence_entry = "NDENIYKGLPD [VAV3_Y141_D139N]"
answer_label = "YES"

[[record]]
sequence_entry = "CEHRGFLFLAI [TEK_Y897_Y897F_YF]"
answer_label = "NO"


Challenge: Does EATKGYLDDPT [G6PD_Y322] have a reported phosphorylation enrichment of at least 0.6?
Response given: NO

Challenge: And the next one, RRIHSYRCHLW [VHL_Y112_G114C] ?
Response given: YES

Challenge: And the next one, "GFITSYREEEQ" ?
Response given: NO

Challenge: And the next one, LLIMEYAKYGS [RET_Y806_V804M] ?
Response given: YES

Challenge: And the next one, LITLVYGCSRQ [TMPRSS6_Y290_S288L] ?
Response given: NO

Challenge: And the next one, LNCDRYSAGLL [PDE6A_Y275_V277A] ?
Response given: NO

----------
System: Fer (mouse)
EXPERIMENT_NOTES: phosphorylation enrichment, bacterial display (enrichment ratio); higher = better substrate or ligand; peptides without Tyr show the background
phosphorylation enrichment reference
Give a plain numeric answer without units written out.

Challenge: Look at this sequence and give its reported phosphorylation enrichment. LSEEKYELKEG [TREM1_Y29_T25S]
Response given: 0.627

Challenge: And the next one, EILLSDLRTGF [TGM1_Y365_Y365D_YF] ?
Response given: 0.576

Challenge: And the next one, QDGFSYLSRQM [LDLR_Y847_P848L_YF] ?
Response given: 0.636

----------
TARGET_OR_SYSTEM: FGFR1 (UniProt P11362)
Sequence (P11362 whole entry, looked up): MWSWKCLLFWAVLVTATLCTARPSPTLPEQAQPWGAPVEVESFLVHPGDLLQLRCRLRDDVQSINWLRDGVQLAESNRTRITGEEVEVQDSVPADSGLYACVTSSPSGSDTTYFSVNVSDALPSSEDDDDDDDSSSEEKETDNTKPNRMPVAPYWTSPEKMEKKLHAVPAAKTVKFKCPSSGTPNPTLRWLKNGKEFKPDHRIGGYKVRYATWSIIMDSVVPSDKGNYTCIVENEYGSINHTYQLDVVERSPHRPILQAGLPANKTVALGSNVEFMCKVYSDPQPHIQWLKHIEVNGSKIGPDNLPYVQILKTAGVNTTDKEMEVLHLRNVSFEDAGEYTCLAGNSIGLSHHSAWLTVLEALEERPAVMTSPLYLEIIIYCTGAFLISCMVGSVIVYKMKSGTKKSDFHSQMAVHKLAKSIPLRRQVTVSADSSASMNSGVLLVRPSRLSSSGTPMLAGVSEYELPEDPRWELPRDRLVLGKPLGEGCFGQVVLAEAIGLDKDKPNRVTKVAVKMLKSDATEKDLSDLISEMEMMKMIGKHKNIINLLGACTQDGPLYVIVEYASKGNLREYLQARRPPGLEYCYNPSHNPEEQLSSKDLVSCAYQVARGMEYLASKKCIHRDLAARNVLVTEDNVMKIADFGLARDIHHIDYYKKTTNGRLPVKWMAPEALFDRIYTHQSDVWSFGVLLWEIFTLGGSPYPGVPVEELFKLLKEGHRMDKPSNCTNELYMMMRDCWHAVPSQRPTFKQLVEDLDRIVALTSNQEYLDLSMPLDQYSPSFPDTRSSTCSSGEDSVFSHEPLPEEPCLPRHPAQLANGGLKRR
EXPERIMENT_NOTES: phosphorylation enrichment, bacterial display (enrichment ratio); higher = better substrate or ligand; peptides without Tyr show the background
phosphorylation enrichment below 2 gives no; phosphorylation enrichment at or above it gives yes.

[[record]]
sequence_entry = "LIFTNYEAGKD [GSTP1_Y112_YF]"
target_or_system = "FGFR1 (UniProt P11362)"
answer_label = "no"

[[record]]
sequence_entry = "FPKAHYHWLVL [APTX_Y214_R213H_YF]"
target_or_system = "FGFR1 (UniProt P11362)"
answer_label = "yes"

[[record]]
sequence_entry = "AKLKDYYIFNK [CCDC42_Y149]"
target_or_system = "FGFR1 (UniProt P11362)"
answer_label = "yes"

[[record]]
sequence_entry = "ISKKRYAGLLF [POLD1_Y809]"
target_or_system = "FGFR1 (UniProt P11362)"
answer_label = "no"


Okay, now this sequence:
Challenge: Does SEDSEYFRAFE [CASQ2_Y178_K180R_YF] have a reported phosphorylation enrichment of at least 2?
Response given: no

----------
TARGET_OR_SYSTEM: EPHB1 (UniProt P54762)
Sequence (P54762 whole entry, looked up): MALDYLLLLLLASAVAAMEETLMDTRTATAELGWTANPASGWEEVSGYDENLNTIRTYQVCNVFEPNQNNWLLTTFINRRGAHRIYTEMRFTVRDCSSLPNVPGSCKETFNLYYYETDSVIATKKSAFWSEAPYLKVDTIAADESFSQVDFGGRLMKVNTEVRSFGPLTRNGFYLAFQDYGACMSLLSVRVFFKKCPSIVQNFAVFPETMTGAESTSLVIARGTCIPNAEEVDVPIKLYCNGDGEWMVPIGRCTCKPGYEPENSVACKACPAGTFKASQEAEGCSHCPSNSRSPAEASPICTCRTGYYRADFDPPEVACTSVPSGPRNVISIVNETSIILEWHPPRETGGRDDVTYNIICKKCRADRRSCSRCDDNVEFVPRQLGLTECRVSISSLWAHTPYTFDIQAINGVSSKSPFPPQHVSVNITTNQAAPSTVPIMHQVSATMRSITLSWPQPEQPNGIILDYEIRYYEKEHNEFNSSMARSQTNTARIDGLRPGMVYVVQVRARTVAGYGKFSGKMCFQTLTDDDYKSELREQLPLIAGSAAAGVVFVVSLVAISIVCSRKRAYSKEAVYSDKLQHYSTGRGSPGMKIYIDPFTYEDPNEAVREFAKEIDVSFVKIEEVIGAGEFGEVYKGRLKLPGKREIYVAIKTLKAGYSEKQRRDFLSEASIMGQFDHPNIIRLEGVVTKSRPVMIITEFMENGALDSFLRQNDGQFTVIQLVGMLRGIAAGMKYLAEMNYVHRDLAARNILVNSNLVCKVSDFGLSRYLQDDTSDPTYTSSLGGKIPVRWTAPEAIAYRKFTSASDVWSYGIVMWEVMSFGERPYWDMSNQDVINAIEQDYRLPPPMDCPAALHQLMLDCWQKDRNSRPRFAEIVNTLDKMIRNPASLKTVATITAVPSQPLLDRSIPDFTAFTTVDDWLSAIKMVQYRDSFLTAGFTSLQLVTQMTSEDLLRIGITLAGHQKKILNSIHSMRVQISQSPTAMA
EXPERIMENT_NOTES: phosphorylation enrichment, bacterial display (enrichment ratio); higher = better substrate or ligand; peptides without Tyr show the background
phosphorylation enrichment reference
Give a plain numeric answer without units written out.

Below are worked cases with known answers.
[[record]]
sequence_entry = "KLSFSYGQALQ [ALDOB_Y302_R304Q]"
target_or_system = "EPHB1 (UniProt P54762)"
measured_result = 0.649

[[record]]
sequence_entry = "IVLEKYKLLPE [DHFR_Y157_D153V]"
target_or_system = "EPHB1 (UniProt P54762)"
measured_result = 0.53

[[record]]
sequence_entry = "EIEFLYNENTV [IARS1_Y680]"
target_or_system = "EPHB1 (UniProt P54762)"
measured_result = 0.641

[[record]]
sequence_entry = "ARVANYQRDGP [CAT_Y386]"
target_or_system = "EPHB1 (UniProt P54762)"
measured_result = 0.564


Challenge: Look at this sequence and give its reported phosphorylation enrichment. IMFTSYFLTIL [TAS2R16_Y239_V235M]
Response given: 0.755

----------
TARGET_OR_SYSTEM: EPHB1 (UniProt P54762)
EXPERIMENT_NOTES: phosphorylation enrichment, bacterial display (enrichment ratio); higher = better substrate or ligand; peptides without Tyr show the background
MEASUREMENT_TYPE: phosphorylation enrichment

[[record]]
sequence_entry = "CTTIHYNFMCF [TP53_Y234_N239Y_YF]"
measured_result = 0.608

[[record]]
sequence_entry = "VDASFYGGRGV [ANTXR2_Y381_YF]"
measured_result = 0.396

[[record]]
sequence_entry = "YLRTGYSVPYG [TGM1_Y370]"
measured_result = 0.4

[[record]]
sequence_entry = "HFPFQCHRQLY [F12_Y53_Y53C]"
measured_result = 0.559

[[record]]
sequence_entry = "HAVYVCDICHV [TWNK_Y508_Y508C]"
measured_result = 1.79


Challenge: Look at this sequence and give its reported phosphorylation enrichment. MEIHAYRKLLE [LMNA_Y376]
Response given: 0.479

Challenge: And the next one, LNCDRYSAGLL [PDE6A_Y275_V277A] ?
Response given: 0.487

Challenge: And the next one, QERPEYWDQET [HLA-A_Y83_G80R] ?
Response given: 0.693

Challenge: And the next one, YECKWYIPLTD [BCR_Y756_D752E] ?
Response given: 0.843

Challenge: And the next one, QTPVLYAMLFH [MPZ_Y220_D224Y_YF] ?
Response given: 6.9

Challenge: And the next one, EIIPFYGMSTY [FNDC3B_Y175] ?
Response given: 0.685

Challenge: And the next one, GLDGSYLLRFS [SH2D1A_Y29_D33Y_YF] ?
Response given: 0.44
